This collection of values is drawn from ChEMBL document CHEMBL1153412.

Assay: Selectivity index, ratio of TC50 for human HepG2(2.2.15) cells to IC50 for HBV
Square brackets hold non-standard residues; d marks the D form. Peptide text beside a SMILES is read from it. * marks the point of attachment. Phe(4-NO2) = N[C@@H](Cc1ccc([N+](=O)[O-])cc1)C(=O)O; Bz = O=C(c1ccccc1)*
Selectivity Index values, listed per item
observation_type: Selectivity Index

- Nc1ccn([C@@H]2CS[C@H](CO)O2)c(=O)n1: 41.59
- O=C(N[C@@H](Cc1ccccc1)C(=O)N[C@@H](Cc1ccccc1)C(=O)O)c1ccccc1 (Bz-Phe-Phe-OH): 12.36
- O=C(N[C@@H](Cc1ccccc1)C(=O)N[C@H](CO)Cc1ccccc1)c1ccc(Cl)cc1: 28.29
- Cc1cccc(C(=O)N[C@@H](Cc2ccccc2)C(=O)N[C@H](CO)Cc2ccccc2)c1: 3.06
- O=C(N[C@@H](Cc1ccc([N+](=O)[O-])cc1)C(=O)N[C@@H](Cc1ccccc1)C(=O)O)c1ccccc1 (Bz-[Phe(4-NO2)]-Phe-OH): 15.52
- CC(=O)Nc1ccc(C[C@H](NC(=O)c2ccccc2)C(=O)N[C@H](CO)Cc2ccccc2)cc1: 23.82

----------
CC50 at 216 h values, listed per item
Test: Cytotoxicity against human HepG2(2.2.15) cells treated for 9 days measured after 24 hrs of last treatment by neutral red uptake assay
Assay type: cell-based
Conditions: read-out: TC50
Square brackets hold non-standard residues; d marks the D form. Peptide text beside a SMILES is read from it. * marks the point of attachment. Phe(4-NO2) = N[C@@H](Cc1ccc([N+](=O)[O-])cc1)C(=O)O; Phe(4-NH2) = Nc1ccc(C[C@H](N)C(=O)O)cc1; Propionyl = CCC(=O)*; Bz = O=C(c1ccccc1)*
observation_type: CC50 at 216 h (µM)

- O=C(N[C@@H](Cc1ccc([N+](=O)[O-])cc1)C(=O)N[C@H](CO)Cc1ccccc1)c1ccccc1: 119
- O=C(N[C@@H](Cc1ccccc1)C(=O)N[C@H](CO)Cc1ccc([N+](=O)[O-])cc1)c1ccccc1: 117
- O=C(N[C@@H](Cc1ccc([N+](=O)[O-])cc1)C(=O)N[C@@H](Cc1ccccc1)C(=O)O)c1ccccc1 (Bz-[Phe(4-NO2)]-Phe-OH): 841
- O=C(N[C@@H](Cc1ccccc1)C(=O)N[C@@H](Cc1ccccc1)C(=O)O)c1ccccc1 (Bz-Phe-Phe-OH): 313
- CC(=O)Nc1ccc(C[C@H](NC(=O)c2ccccc2)C(=O)N[C@H](CO)Cc2ccccc2)cc1: 93.8
- O=C(N[C@@H](Cc1ccccc1)C(=O)N[C@H](CO)Cc1ccccc1)c1ccccc1Cl: 382
- O=C(N[C@@H](Cc1ccccc1)C(=O)N[C@H](CO)Cc1ccccc1)c1ccc(Cl)cc1: 65.8
- Nc1ccn([C@@H]2CS[C@H](CO)O2)c(=O)n1: 3430
- O=C(N[C@@H](Cc1ccccc1)C(=O)N[C@H](CO)Cc1ccccc1)c1ccccc1: 574
- CC(=O)Nc1ccc(C[C@@H](CO)NC(=O)[C@H](Cc2ccccc2)NC(=O)c2ccccc2)cc1: 164
- Cc1ccc(C(=O)N[C@@H](Cc2ccccc2)C(=O)N[C@H](CO)Cc2ccccc2)cc1: 1860
- CCC(=O)Nc1ccc(C[C@H](NC(=O)[C@H](Cc2ccccc2)NC(=O)c2ccccc2)C(=O)O)cc1 (Bz-Phe-[Phe(4-NH2)](Propionyl)-OH): 1150
- Cc1cccc(C(=O)N[C@@H](Cc2ccccc2)C(=O)N[C@H](CO)Cc2ccccc2)c1: 185
